# experimental-protocol: Metabolic stability in human hepatic microsome
# Format: in vitro ADME
# study-conditions: microsomes, pH 7.4; human hepatic microsome, NADPH(+); read-out: CL NADPH(+)
Starred links: 1 amine or outer side, 2 acyl side, 3 side chain; linkers in the order of their positions; H or OH if unused. Positions of bridges follow the written chain, without caps; N, C: chain ends. Non-standard residues stand in square brackets, D forms with d. Residues, ends and D or L forms follow the SMILES beside them. *: point of attachment. NMeF = CN[C@@H](Cc1ccccc1)C(=O)O; NMeGABA = CN(CCCC(=O)[*:2])[*:1]; NMeI = CC[C@H](C)[C@H](NC)C(=O)O; NMeβAla = CN(CCC(=O)[*:2])[*:1]; NMeL = CN[C@@H](CC(C)C)C(=O)O; Ala(CN) = N#CC[C@H](N)C(=O)O; NMeV = CN[C@H](C(=O)O)C(C)C; NMeA = CN[C@@H](C)C(=O)O; Piperidide = C1CCN(*)CC1; dNMeA = CN[C@H](C)C(=O)O; β3hA = C[C@H](N)CC(=O)O; Abu = CC[C@H](N)C(=O)O; Sar = CNCC(=O)O
quantity-measured: microsomal CLint at 1 uM (µL/min/mg)
Answers are plain numbers, in µL/min/mg.

Please review the entries below; each comes with its answer.
CC[C@H](C)[C@@H]1NC(=O)[C@H](CC(C)C)N(C)C(=O)[C@H](Cc2ccccc2)NC(=O)[C@H](C)N(C)C(=O)C[C@@H](C(=O)N(C)[C@@H](Cc2ccccc2)C(=O)N(C)[C@@H](Cc2ccccc2)C(=O)N[C@@H](C)C(=O)N2CCCCC2)NC(=O)[C@H](C(C)C)N(C)C(=O)[C@H](C)N(C)C(=O)[C@H](C)N(C)C(=O)[C@H]([C@@H](C)O)NC(=O)CN(C)C1=O [DP-394] ([NMeA]F[NMeL]I[Sar]T[NMeA][NMeA][NMeV]D[NMeF][NMeF]A-Piperidide; lactam N-10) | 10
C=C1CCC(=O)N[C@@H](CC(C)C)C(=O)N[C@@H](C(C)C)C(=O)N(C)[C@@H](CC(C)C)C(=O)N[C@@H](Cc2ccccc2)C(=O)N(C)[C@@H](Cc2ccccc2)C(=O)N[C@@H]([C@@H](C)CC)C(=O)N(C)[C@@H](C)C(=O)N[C@@H](CC(C)C)C(=O)N[C@@H]([C@@H](C)O)C(=O)N[C@H](C(=O)N2CCCCC2)Cc2ccc1cc2 [DP-888] | 69

Could I get microsomal CLint at 1 uM for every one of these entries?
1. CC(C)C[C@H]1C(=O)N[C@@H](Cc2ccccc2)C(=O)N(C)[C@@H](C(C)C)C(=O)N(C)[C@@H](C)C(=O)N(C)[C@@H](Cc2ccccc2)C(=O)N[C@@H]([C@@H](C)O)C(=O)NCC(=O)N[C@H](C(=O)N(C)[C@@H](Cc2ccccc2)C(=O)N[C@@H](C)C(=O)N2CCCCC2)CC(=O)N(C)[C@@H](C)C(=O)N[C@@H](C)C(=O)N1C [DP-375] ([NMeA]A[NMeL]F[NMeV][NMeA][NMeF]TGD[NMeF]A-Piperidide; lactam N-10)
2. CC[C@H](C)[C@H]1C(=O)N[C@@H](CC(C)C)C(=O)N(C)[C@@H](CC(C)C)C(=O)N[C@H](C(=O)N2CCCCC2)CC(=O)N(C)CCCC(=O)N(C)[C@@H](CC(C)C)C(=O)N[C@@H]([C@@H](C)O)C(=O)N(C)[C@@H](C)C(=O)N[C@@H](C)C(=O)N(C)[C@@H](Cc2ccccc2)C(=O)N(C)[C@@H](Cc2ccccc2)C(=O)N1C [DP-249] ([NMeGABA][NMeL]T[NMeA]A[NMeF][NMeF][NMeI]L[NMeL]D-Piperidide; lactam N-11)
3. CC[C@H](C)[C@@H]1NC(=O)[C@H](Cc2ccccc2)NC(=O)[C@H](CC(C)C)NC(=O)CNC(=O)[C@H]([C@@H](C)O)NC(=O)[C@H](Cc2ccccc2)NC(=O)[C@H](C)N(C)C(=O)C[C@@H](C(=O)N2CCCCC2)NC(=O)[C@H](Cc2ccccc2)NC(=O)[C@H](CC(C)C)N(C)C1=O [DP-436] ([NMeA]FTGLFI[NMeL]FD-Piperidide; lactam N-10)
4. CC[C@H](C)[C@@H]1NC(=O)[C@H](C)N(C)C(=O)C[C@@H](C(=O)N2CCCCC2)NC(=O)[C@H](Cc2ccccc2)NC(=O)[C@H](CC(C)C)N(C)C(=O)[C@H](C(C)C)N(C)C(=O)[C@H](C)N(C)C(=O)[C@H]([C@@H](C)O)NC(=O)[C@H](Cc2ccccc2)N(C)C(=O)[C@H](C)N(C)C(=O)[C@H](CC(C)C)N(C)C1=O [DP-481] ([NMeA]I[NMeL][NMeA][NMeF]T[NMeA][NMeV][NMeL]FD-Piperidide; lactam N-11)
5. CC[C@H](C)[C@H]1C(=O)N[C@@H](Cc2ccccc2)C(=O)N[C@H](C(=O)N2CCCCC2)CC(=O)N(C)CCC(=O)N(C)[C@@H](C(C)C)C(=O)N[C@@H](Cc2ccccc2)C(=O)N[C@@H](CC(C)C)C(=O)N(C)[C@@H](C)C(=O)N[C@@H]([C@@H](C)O)C(=O)N[C@@H](CC(C)C)C(=O)N(C)[C@@H](CC(C)C)C(=O)NCC(=O)N1C [DP-221] ([NMeβAla][NMeV]FL[NMeA]TL[NMeL]G[NMeI]FD-Piperidide; lactam N-12)
6. CC(C)C[C@H]1C(=O)N[C@@H](Cc2ccccc2)C(=O)N[C@@H]([C@@H](C)O)C(=O)N(C)[C@@H](C)C(=O)N(C)[C@@H](Cc2ccccc2)C(=O)N(C)[C@@H](C(C)C)C(=O)NCC(=O)N[C@H](C(=O)N(C)[C@@H](Cc2ccccc2)C(=O)N[C@@H](C)C(=O)N2CCCCC2)CC(=O)N(C)[C@H](C)C(=O)N[C@@H](C)C(=O)N1C [DP-355] ([dNMeA]A[NMeL]FT[NMeA][NMeF][NMeV]GD[NMeF]A-Piperidide; lactam N-10)
7. CC[C@@H]1NC(=O)C[C@H](C)NC(=O)[C@H](CC(C)C)N(C)C(=O)[C@H](CC(C)C)N(C)C(=O)[C@H](CC(C)C)N(C)C(=O)[C@@H](C)NC(=O)[C@H](CO)NC(=O)[C@H](CC(C)C)N(C)C(=O)[C@H](CC(C)C)NC(=O)[C@H](CC(C)C)N(C)C(=O)CN(C)C1=O [DP-651] (cyclo([Abu][Sar][NMeL]L[NMeL]S[dA][NMeL][NMeL][NMeL][β3hA]))

output:
1: 39; 2: 151; 3: 142; 4: 82; 5: 75; 6: 66; 7: 68

Lab note: CC(C)C[C@@H]1NC(=O)[C@H](CC(C)C)N(C)C(=O)[C@H](C)N(C)C(=O)[C@@H](C(C)C)NC(=O)C[C@@H](C(=O)N2CCCCC2)NC(=O)[C@H]([C@@H](C)O)NC(=O)[C@H](Cc2ccccc2)N(C)C(=O)[C@H](C)N(C)C(=O)[C@H](CC(C)C)N(C)C(=O)[C@H](CC#N)NC(=O)[C@H](Cc2ccccc2)N(C)C1=O [DP-630] ([dV][NMeA][NMeL]L[NMeF][Ala(CN)][NMeL][NMeA][NMeF]TD-Piperidide; lactam N-11) gave microsomal CLint at 1 uM of 34

---

For each of the molecules below, state its Papp at 18 hours, 50 µM.
# experimental-protocol: PAMPA (parallel artificial membrane permeability assay)
# Assay type: in vitro ADME
# study-conditions: PAMPA; membrane permeation rate (Pe); 50 mM MOPSO buffer pH 6.5 with 5.0% glycocholic acid, 37° C., 18 hours; read-out: iPAMPA Pe
Starred links: 1 amine or outer side, 2 acyl side, 3 side chain; linkers in the order of their positions; H or OH if unused. Positions of bridges follow the written chain, without caps; N, C: chain ends. Non-standard residues stand in square brackets, D forms with d. Residues, ends and D or L forms follow the SMILES beside them. *: point of attachment. Phe(3-(CH2)4CO) = O=C([C@H](Cc1cccc(CCCCC(=O)[*:3])c1)N[*:1])[*:2]; NMeF = CN[C@@H](Cc1ccccc1)C(=O)O; NMeGABA = CN(CCCC(=O)[*:2])[*:1]; NMeβAla = CN(CCC(=O)[*:2])[*:1]; NMeL = CN[C@@H](CC(C)C)C(=O)O; NMeV = CN[C@H](C(=O)O)C(C)C; NMeA = CN[C@@H](C)C(=O)O; Piperidide = C1CCN(*)CC1; Sar = CNCC(=O)O; tBu = CC(C)(C)*
Numbers only, in ×10⁻⁶ cm/s.

// below: answered molecules
CC[C@H](C)[C@@H]1NC(=O)[C@H](CC(C)C)NC(=O)[C@H](CC(C)C)N(C)C(=O)[C@H](CC(C)C)NC(=O)[C@H](CC(C)C)NC(=O)[C@H](Cc2ccccc2)NC(=O)[C@H](CC(C)C)NC(=O)[C@H](Cc2ccccc2)NC(=O)[C@H]([C@@H](C)O)NC(=O)CCN(C)C(=O)C[C@@H](C(=O)N2CCCCC2)NC1=O [DP-323] ([NMeβAla]TFLFLL[NMeL]LID-Piperidide; lactam N-11) | 7.8
CC(C)C[C@@H]1NC(=O)CCN(C)C(=O)C[C@@H](C(=O)N2CCCCC2)NC(=O)[C@H](CC(C)C)N(C)C(=O)[C@H](CC(C)C)NC(=O)[C@H](Cc2ccccc2)NC(=O)[C@H](C)NC(=O)[C@H]([C@@H](C)O)NC(=O)[C@H](CC(C)C)NC(=O)CN(C)C(=O)[C@H](CC(C)C)NC1=O [DP-324] ([NMeβAla]LL[Sar]LTAFL[NMeL]D-Piperidide; lactam N-11) | 7.7
CC(C)C[C@H]1C(=O)N[C@@H]([C@@H](C)O)C(=O)N(C)[C@@H](Cc2ccccc2)C(=O)N(C)[C@@H](CC(C)C)C(=O)NCC(=O)N(C)[C@@H](C(C)C)C(=O)N[C@@H](Cc2ccccc2)C(=O)N[C@H](C(=O)N(C)[C@@H](Cc2ccccc2)C(=O)N(C)[C@@H](Cc2ccccc2)C(=O)N[C@@H](C)C(=O)N2CCCCC2)CC(=O)N[C@H](C(C)C)C(=O)N[C@@H](C(C)C)C(=O)N1C [DP-205] ([dV]V[NMeL]T[NMeF][NMeL]G[NMeV]FD[NMeF][NMeF]A-Piperidide; lactam N-10) | 0.12
CC(C)C[C@H]1C(=O)N[C@@H](COC(C)(C)C)C(=O)N(C)[C@@H](CC(C)C)C(=O)N[C@H](C(=O)N2CCCCC2)Cc2cccc(c2)CCCCC(=O)N(C)[C@@H](C)C(=O)N(C)[C@@H](Cc2ccccc2)C(=O)N(C)[C@@H](CC(C)C)C(=O)N[C@@H]([C@@H](C)O)C(=O)N(C)CC(=O)N1C [DP-838] ([NMeA][NMeF][NMeL]T[Sar][NMeL]S(tBu)[NMeL][Phe(3-(CH2)4CO)]-Piperidide; lactam N-9) | 54

// next entry
Recorded Papp at 18 hours, 50 µM (molecule CC(C)C[C@H]1C(=O)N(C)[C@@H](CC(C)C)C(=O)N[C@H](C(=O)N2CCCCC2)CC(=O)N(C)CCCC(=O)N(C)[C@@H](Cc2ccccc2)C(=O)N[C@@H]([C@@H](C)O)C(=O)N(C)[C@@H](CC(C)C)C(=O)N[C@@H](COC(C)(C)C)C(=O)N1C [DP-686] ([NMeGABA][NMeF]T[NMeL]S(tBu)[NMeL][NMeL]D-Piperidide; lactam N-8) ): 36

meta.source: patent US9409952B2
